biological target: SARS-CoV-2 spike RBD (WT) (Severe acute respiratory syndrome …, UniProt P0DTC2); assay: BLI
Checkbox rule: Kd lower than 200 nM = t; Kd not lower than 200 nM = f.

Binder: B26 (antibody, V domains shown) VH: QVQLQQPGAELVKPGASVKMSCKASGYTFTSYWITWVKQRPGQGLEWIGDIYPGSGSTNYNEKFKSKATLTVDTSSSTAYMQLSSLTSEDSAVYYCARDWDYGSSYWYFDVWGTGTTVTVSS VL: DIKMTQSPSSMYASLGERVTITCKASQDIKSYLSWYQQKPWKSPKTLIYYATSLADGVPSRFSGSGSGQDYSLTISSLASDDTATYYCLQHGESPYTFGGGTKLEIK
Class: t

Binder: B23 (antibody, V domains shown) VH: EVKLEESGGGLVQPGGSMKLSCAASGFTFSDAWMDWVRQSPEKGLEWIAEIRNKANNHATYYAESVKGRFTISRDDSKSSVYLQMNSLRAEDTGIYYCTRGLTGPYFDYWGQGTTLTVSS VL: DIVMTQSQKFMSTSVGDRVTITCKASQNVRTAVAWYQQKPGQSPKALIYLASNRHTGVPDRFTGSGSGTDFTLTISNVQSEDLADYFCLQHWNYPLTFGAGTKLELK
Class: f

Binder: A23 (antibody, V domains shown) VH: QAYLQQSGAELVRPGASVKMSCKASGYTFTSYNMHWVKQTPRQGLEWIGAIYPGNGDTSYNQKFKDKATLTVDKSSSTAYMQLSSLTSGDSAVYFCARDYYGCSYGYFDVWGTGTTVTVSS VL: DIQMTQTTSSLSASLGDRVTISCSASQGISNYLNWYQQKPDGTVKLLIYYTSSLHSGVPSRFSGSGSGTDYSLTISNLEPEDIATYYCQQYSKLPYTFGGGTKLEIK
Class: f

Binder: B27 (antibody, V domains shown) VH: EVKLEESGGGLVQPGGSMKLSCAASGFTFSDAWMDWVRQSPEKGLEWVAEIRNKANNHATYYAESVKGRFTISRDDSKSSVYLQMNSLRAEDTGIYYCTNYKYYAMDYWGQGTSVTVSS VL: QIVLTQSPAIMSASPGEKVTMTCSASSSVSYMYWYQQKPGSSPRLLIYDTSNLASGVPVRFSGSGSGTSYSLTISRMEAEDAATYYCQQWSSYPLTFGAGTKLELK
Class: t

Binder: B42 (antibody, V domains shown) VH: QVQLQQPGAELVKPGASVKVSCKASGYTFTSYWMHWVKQRPGQGLEWIGRIHPSDSDTNYNQKFKDKATLTVDKSSSTAYMQLSSLTSEDSAVYFCVIDHYFDYWGQGTTLTVSS VL: DIVMSQSPSSLAVSAGEKVTMSCKSSQSLLNSRTRKNYLAWYQQKPGQSPKLLIYWASTRESGVPDRFTGSGSGTDFTLTISSVQAEDLAVYYCKQSYNLYTFGGGTKLEIK
Class: t
